Measured fold change (FC) by item
assay_comment: Activation of Akt-dependent signalling pathway in rat L6 myotubes assessed as increase in insulin-stimulated myc-tagged GLUT4-mediated 2-[3H]-deoxyglucose uptake at 25 uM incubated for 16 hrs followed by insulin stimulation for 20 mins measured for 5 mins by beta scintillation counting method relative to control
// no unit, no text: just the number

INSERT INTO measurements (compound, measurement_name, data_value) VALUES
  ('CN(CCOc1ccc(CC2SC(=O)NC2=O)cc1)c1ccccn1 (stereo not given)', 'fold change (FC)', 2.75);

Consider the compound `COc1ccc2[nH]c3c4c(c(C)cc3c2c1)OC(C)(C)C=C4` and give its recorded fold change (FC).
2.54

Give the reported fold change (FC) for this compound. `COc1ccc2c(c1)[nH]c1c3c(c(C)cc12)OC(C)(C)C=C3`
2.7

Fill in fold change (FC) for record `CC(C)=CCC[C@]1(C)C=Cc2c(c(C)cc3c2[nH]c2ccccc23)O1`
2.68

# return recorded fold change (FC) for entry `COc1cc2[nH]c3c4c(c(C)cc3c2cc1OC)OC(C)(C)C=C4`
2.41

###

# Lookup of reported Tmax keyed by entry
assay_comment: Tmax in Sprague-Dawley rat plasma at 100 mg/kg, po administered as single dose by LC-MS/MS analysis
Assay type: ADME, organism-based
Use h as the unit, but write only the number.

INSERT INTO assay_data (chemical_structure, units, data_value) VALUES
  ('COc1ccc2[nH]c3c4c(c(C)cc3c2c1)OC(C)(C)C=C4', 'h', 0.83);

Determine its reported Tmax: `COc1cc2[nH]c3c4c(c(C)cc3c2cc1OC)OC(C)(C)C=C4`
4

###

assay_comment: Activation of Akt-dependent signalling pathway in rat L6 myotubes assessed as induction of myc-tagged GLUT4 translocation to cell surface at 25 uM incubated for 16 hrs by O-phenylenediamide based colorimetric assay relative to control
measurement_name: fold change (FC)
// response body must contain only the number

Answered examples (3):
INSERT INTO results (compound, data_value) VALUES
  ('COc1ccc2[nH]c3c4c(c(C)cc3c2c1)OC(C)(C)C=C4 [KOENIMBINE]', 1.44),
  ('COc1cc2[nH]c3c4c(c(C)cc3c2cc1OC)OC(C)(C)C=C4', 1.29),
  ('CC(C)=CCC[C@]1(C)C=Cc2c(c(C)cc3c2[nH]c2ccccc23)O1', 1.41);

Now look at this entry.
Give the value of fold change (FC) reported for the following: `COc1ccc2c(c1)[nH]c1c3c(c(C)cc12)OC(C)(C)C=C3`
1.33

###

Items are presented alongside their recorded K.
assay_comment: Metabolic stability in rat liver microsomes assessed as drug degradation rate constant incubated for 90 mins by HPLC analysis
Format: ADME
experimental_parameters: 1.5 h
Note: unit min⁻¹ is implicit; provide only the numeric part.

INSERT INTO results (chemical_structure, measurement_name, data_value) VALUES
  ('CC(C)=CCC[C@]1(C)C=Cc2c(c(C)cc3c2[nH]c2ccccc23)O1', 'K', 0.088),
  ('COc1cc2[nH]c3c4c(c(C)cc3c2cc1OC)OC(C)(C)C=C4', 'K', 0.003),
  ('COc1ccc2c(c1)[nH]c1c3c(c(C)cc12)OC(C)(C)C=C3', 'K', 0.004);

Let us move to another entry and its K.
Report K for `COc1ccc2[nH]c3c4c(c(C)cc3c2c1)OC(C)(C)C=C4`
0.005

These measurements were taken from ChEMBL document CHEMBL3853285.
